These measurements were taken from the array DNA melting data of Ke et al. (doi:10.1101/2024.01.08.574731).

measurement-protocol: folding enthalpy; higher = less favourable; fluorescence melt of hairpins on a sequencing array, two-state fit
condition-info: sodium 0.088 M
Measured folding enthalpy, listed per entry.
Please state the figure in kcal/mol; there is no need to write the unit.

Solved entries (count: 5):
>>> print(df.to_string())
                          query_sequence  reading
0      GATCCGTTAGCGGATC ((((((....))))))    -39.9
1  GGAATCGAAAGATTGTCC ((((((....)))..)))    -11.1
2  GCTCCCGAAAGGGATAGC ((((((....)))..)))    -17.5
3              GCGATAACTCGC ((((....))))    -21.1
4  GACGAAGGAAACCTCGTC (((((.(....).)))))      -33

The recorded folding enthalpy for entry GATCAGTTAACTGATC ((((((....)))))) equals -40.5

Just so you know, measured folding enthalpy for GCTCGCGAAAGCGATAGC ((((((....)))..))) came out at -14.4

The sequence listed as GGATTTGGAAACAAATCC (((((((....))))))) has a reported folding enthalpy of -44.3

Looking up GGCCACGAAAGTGTGCC ((((((....))).))) , I see its folding enthalpy listed as -25.9

GTTTCCGAAAGGATCAAC ((((((....)))..))) yielded folding enthalpy of -11.2

Looking up GCGAGTACTCGC ((((....)))) , I found its folding enthalpy recorded as -30.6

Form field folding enthalpy, entry GATCCTCTGTAGGATC ((((((....)))))) : -36.2

====

measurement-protocol: folding enthalpy; higher = less favourable; fluorescence melt of hairpins on a sequencing array, two-state fit
condition-info: sodium 0.088 M
outcome-measure: folding enthalpy

Below, each entry is followed by its recorded folding enthalpy result.
>>> print(df.to_string())
                          query_sequence   outcome_measure         reading
0  GACTCGGGAAACCGAATC ((.((((....)))).))  folding enthalpy  -18.2 kcal/mol
1  GGGCACGAAAGTGCGCCC ((((((....)))..)))  folding enthalpy  -11.8 kcal/mol
2  GCGGTGGGAAACTACCGC (((((.(....).)))))  folding enthalpy  -37.5 kcal/mol
3  GCACATGGAAACATGTGC (((((((....)))))))  folding enthalpy  -43.4 kcal/mol
4  GGACGGACGAAAGTCTCC (((..(((....))))))  folding enthalpy  -13.2 kcal/mol
5  GGAGCTCGAAAGAGTTCC (((.(((....))).)))  folding enthalpy  -42.9 kcal/mol
6  GCTGATGGAAACGTCAGC (((((.(....).)))))  folding enthalpy  -40.3 kcal/mol
7      GATCGTCAGCACGATC ((((((....))))))  folding enthalpy  -27.8 kcal/mol
8  GCTAGGCGAAAGCAAAGC (((..((....))..)))  folding enthalpy  -19.2 kcal/mol
9  GTTGTCGGAAACGGTAAC (((..((....))..)))  folding enthalpy  -21.9 kcal/mol

Sample GGAATCGGAAACGATCCC ((.((((....)))).)) ; folding enthalpy observed: -25.9 kcal/mol

Note to self: folding enthalpy recorded for GTGGGTCGAAAGACGCAC (((.(((....))).))) was -34.3 kcal/mol

====

Tm values for the sequences below.
measurement-protocol: melting temperature; fluorescence melt of hairpins on a sequencing array, two-state fit, raised by 9.35 °C to match UV melts
condition-info: sodium 0.088 M
Your answer is read as °C, so omit the unit and give the number.

                      query_sequence  measurement_unit  reading
0  GATCGGTCTACCGATC ((((((....))))))                °C     62.3

Value of measured Tm for the entry GATCGGCCCCCCGATC ((((((....)))))) : 56.1

Summary for this sequence, GATCACCCGGTGATC ((((((...)))))) : Tm is 56.3

According to the records, this sequence GGCTCTGGAAACGGAGCC (((((.(....).))))) displays Tm of 60

Field Tm (entry GGTCTTCGAAAGAATACC (((.(((....))).))) ) reads 39.1

// GTGTGCGAAAGCAGTCAC ((((((....)))..))) : Tm value = 38.5

====

measurement-protocol: folding enthalpy; higher = less favourable; fluorescence melt of hairpins on a sequencing array, two-state fit
condition-info: sodium 0.088 M
folding enthalpy overview
Lab book: enter the figure in kcal/mol, no units written.

>>> df
                          query_sequence  reading
0  GATCTAGCGAAAGCTATC (((..(((....))))))    -10.5
1    GAGGACGAAAGTCGCTC ((((((....))).)))    -17.8
2  GCATACGAAAGTATTTGC ((((((....)))..)))    -17.1

Consider GATCGAAGGGTCGATC ((((((....)))))) . Its measured folding enthalpy is -31.6

Form: sequence = GATCCCCTTGGGATC ((((((...)))))) ; folding enthalpy = -37.4

Record GGCGTGGGAAACTACGCC (((((.(....).))))) , field folding enthalpy: -48

Recorded folding enthalpy (sequence GTTCACGAAAGTGGTAAC ((((((....)))..))) ): -12.5

For reference, reported folding enthalpy for GATCTCTCTAGAGATC ((((((....)))))) stands at -37.4

Briefly, folding enthalpy measured for GTTATCGGAAACGATAGC (.(((((....))))).) : -21.5

// field: folding enthalpy; key: GATTCCGAAAGGAAATC ((((((....))).))) ; value = -21.4

The recorded folding enthalpy for entry GCACCGCGAAAGCGTGC (((.(((....)))))) equals -19

Measured folding enthalpy of GATCTACCCTTAGATC ((((((....)))))) : -35.6

====

measurement-protocol: folding enthalpy; higher = less favourable; fluorescence melt of hairpins on a sequencing array, two-state fit
condition-info: sodium 0.088 M
List of folding enthalpy values.
Entry rule: numbers only, all in kcal/mol.

Solved entries (count: 3):
                          query_sequence  reading
0      GATCCTCAACAGGATC ((((((....))))))    -37.2
1          TTCACGAAAGTGAA (((((....)))))    -19.2
2  GTTGTCCGAAAGGAAAAC (((.(((....))).)))    -26.9

Entry GATCCCCGGTGGGATC ((((((....)))))) , folding enthalpy reported as -37.5

folding enthalpy in this record for GGGCCCACGAAAGTGCCC (((..(((....)))))) : -18.8

The sequence identified as GGCCTCGCGAAAGCGGCC (((..(((....)))))) registered its folding enthalpy at -17.5

Data point: GGCTACCGAAAGGTCGCC (((.(((....))).))) ; folding enthalpy = -39.2

====

Tm overview
measurement-protocol: melting temperature; fluorescence melt of hairpins on a sequencing array, two-state fit, raised by 9.35 °C to match UV melts
condition-info: sodium 0.088 M
Express it in °C; write the number only.

Consider the worked cases shown below.
In [3]: df
Out[3]:
                          query_sequence  reading
0  GCGGGTTCGAAAGAACGC (((..(((....))))))     45.5
1  GTCCAGGGAAACCCAGAC (((..((....))..)))     31.4
2    GCAAACGAAAGTTCTGC ((((((....))).)))     37.2
3      GATCTAACATTAGATC ((((((....))))))     39.6
4  GGTCCGGGAAACTGGGCC ((.((.(....).)).))     51.7

Form: sequence = CAGGTGAAAACCTG (((((....))))) ; Tm = 53

Per the record, GGGCGAGCGAAAGCTCCC (((..(((....)))))) has Tm of 50.5

Given item GCGCCGCGAAAGCGAAGC ((..(((....)))..)) , the value recorded as its Tm is 64.8

Notebook: GCTAAGGGAAACCTCAGC (((.(((....))).))) , Tm read as 34.2

Lookup result for GATCTTTCGAAGATC ((((((...)))))) ; measured Tm: 40.7

So for GATCGTCTTAACGATC ((((((....)))))) , the logged Tm turned out to be 58.5

Input GCGATTGGAAACGATTGC ((.((.(....).)).)) . Output Tm: 36.4

Data point: GTGGATCGAAAGATTCAC (((.(((....))).))) ; Tm = 53.8
